Assay: Stability of cannabinoid entourage and Vitamin E components of the powder concentrate by LCMSMS
Assay type: physicochemical
Conditions: powder stored at 21-25° C.; 330 days
quantity: Stability of Plant-Derived Cannabinoid Compounds in Powder Concentrate (mg/g powder)
One number for each entry, in mg/g powder.

See these solved cases before continuing.
CCCc1cc(O)c2c(c1)OC(C)(C)[C@@H]1CCC(C)=C[C@@H]21 [THCV, delta-9-tetrahydrocannabivarin]; 0.691
C=C(C)[C@@H]1CCC(C)=C[C@H]1c1c(O)cc(CCCCC)c(C(=O)O)c1O; 0.424

Consider now this further molecule.
INPUT: State the recorded Stability of Plant-Derived Cannabinoid Compounds in Powder Concentrate for this entry: CCCCCc1cc(O)c2c(c1)OC(C)(C)[C@@H]1CCC(C)=C[C@@H]21 [D9 THC, delta-9-tetrahydrocannabinol, reference compound]
OUTPUT: 2.49
